meta.source: the array DNA melting data of Ke et al. (doi:10.1101/2024.01.08.574731)

Listed below: folding enthalpy values for each entry.
# METHOD: folding enthalpy; higher = less favourable; fluorescence melt of hairpins on a sequencing array, two-state fit
# REPORTED_CONDITIONS: sodium 0.088 M

> print(dat)
                         sequence.string  endpoint.value
1  GATCAAGGAAACTTGACC (.(((((....))))).)  -18.7 kcal/mol
2  GCACGGGGAAACCCGTAC (.(((((....))))).)  -13.2 kcal/mol

Query: Look up and state reported folding enthalpy for GATCAAGGTATTGATC ((((((....))))))
Reply: -35.2 kcal/mol

Query: Look up and state reported folding enthalpy for GATCTCACCGAGATC ((((((...))))))
Reply: -36.5 kcal/mol

Query: Look up and state reported folding enthalpy for GATCCTCTTGAGGATC ((((((....))))))
Reply: -41 kcal/mol
